- method: Cytotoxicity against human HaCaT cells assessed as reduction in cell viability pretreated for 1 hr followed by DMEM addition measured after 24 hrs by alamar blue assay
- Type: cell-based
- studyConditions: read-out: ED50
Square brackets hold non-standard residues; d marks the D form. Peptide text beside a SMILES is read from it. Gly(N-(CH2)6NH2) = NCCCCCCNCC(=O)O; Gly(N-2-aminoethyl) = NCCNCC(=O)O; Nspe = C[C@H](NCC(=O)O)c1ccccc1; NhArg = N=C(N)NCCCCNCC(=O)O; Nphe = O=C(O)CNCc1ccccc1
Below, each entry is listed with its recorded CC50 at 24 h.
quantityKind: CC50 at 24 h

compound	dataValue
CC(c1ccccc1)N(CC(=O)N(CCCCN)CC(=O)N(CC(=O)N(CC(=O)N(CCCCN)CC(=O)N(CC(=O)N(CC(N)=O)[C@@H](C)c1ccccc1)[C@@H](C)c1ccccc1)Cc1ccc(F)cc1)Cc1ccc(F)cc1)C(=O)CN(C(=O)CN(CCCCN)C(=O)CN(Cc1ccc(F)cc1)C(=O)CN(Cc1ccc(F)cc1)C(=O)CNCCCCN)[C@@H](C)c1ccccc1 (single isomer, unassigned)	> 100 µM
C[C@@H](c1ccccc1)N(CC(N)=O)C(=O)CN(C(=O)CN(CCCCNC(=N)N)C(=O)CN(C(=O)CN(C(=O)CN(CCCCNC(=N)N)C(=O)CN(C(=O)CN(C(=O)CN(CCCCNC(=N)N)C(=O)CN(C(=O)CN(C(=O)CNCCCCNC(=N)N)[C@@H](C)c1ccccc1)[C@@H](C)c1ccccc1)[C@@H](C)c1ccccc1)[C@@H](C)c1ccccc1)[C@@H](C)c1ccccc1)[C@@H](C)c1ccccc1)[C@@H](C)c1ccccc1 (H-[NhArg][Nspe][Nspe][NhArg][Nspe][Nspe][NhArg][Nspe][Nspe][NhArg][Nspe][Nspe]-NH2)	20 µM
NCCCCCCNCC(=O)N(CC(=O)N(CC(=O)N(CCCCCCN)CC(=O)N(CC(=O)N(CC(N)=O)Cc1ccccc1)Cc1ccccc1)Cc1ccccc1)Cc1ccccc1 (H-[Gly(N-(CH2)6NH2)][Nphe][Nphe][Gly(N-(CH2)6NH2)][Nphe][Nphe]-NH2)	> 100 µM
NCCNCC(=O)N(CC(=O)N(CC(=O)N(CCN)CC(=O)N(CC(=O)N(CC(=O)N(CCN)CC(=O)N(CC(=O)N(CC(N)=O)Cc1ccccc1)Cc1ccccc1)Cc1ccccc1)Cc1ccccc1)Cc1ccccc1)Cc1ccccc1 (H-[Gly(N-2-aminoethyl)][Nphe][Nphe][Gly(N-2-aminoethyl)][Nphe][Nphe][Gly(N-2-aminoethyl)][Nphe][Nphe]-NH2)	> 100 µM
CC(c1ccccc1)N(CC(=O)N(CCCCN)CC(=O)N(CC(=O)N(CC(=O)N(CCCCN)CC(=O)N(CC(=O)N(CC(N)=O)[C@@H](C)c1ccccc1)[C@@H](C)c1ccccc1)Cc1ccc(F)cc1)Cc1ccc(F)cc1)C(=O)CN(C(=O)CNCCCCN)[C@@H](C)c1ccccc1 (single isomer, unassigned)	65 µM
N=C(N)NCCCCNCC(=O)N(CC(=O)N(CC(=O)N(CCCCNC(=N)N)CC(=O)N(CC(=O)N(CC(=O)N(CCCCNC(=N)N)CC(=O)N(CC(=O)N(CC(=O)N(CCCCNC(=N)N)CC(=O)N(CC(=O)N(CC(N)=O)Cc1cccc(F)c1)Cc1cccc(F)c1)Cc1cccc(F)c1)Cc1cccc(F)c1)Cc1cccc(F)c1)Cc1cccc(F)c1)Cc1cccc(F)c1)Cc1cccc(F)c1	28 µM

###

- method: Selectivity index, ratio of ED50 for human HaCaT cells to MIC for Pseudomonas aeruginosa PAO1 ATCC 15692
- Type: toxicity
- studyConditions: read-out: Selectivity Index
Square brackets hold non-standard residues; d marks the D form. Peptide text beside a SMILES is read from it. Gly(N-(CH2)6NH2) = NCCCCCCNCC(=O)O; Nspe = C[C@H](NCC(=O)O)c1ccccc1

compound	selectivity ratio
C[C@@H](c1ccccc1)N(CC(N)=O)C(=O)CN(C(=O)CN(CCCCCCN)C(=O)CN(C(=O)CN(C(=O)CN(CCCCCCN)C(=O)CN(C(=O)CN(C(=O)CN(CCCCCCN)C(=O)CN(C(=O)CN(C(=O)CNCCCCCCN)[C@@H](C)c1ccccc1)[C@@H](C)c1ccccc1)[C@@H](C)c1ccccc1)[C@@H](C)c1ccccc1)[C@@H](C)c1ccccc1)[C@@H](C)c1ccccc1)[C@@H](C)c1ccccc1 (H-[Gly(N-(CH2)6NH2)][Nspe][Nspe][Gly(N-(CH2)6NH2)][Nspe][Nspe][Gly(N-(CH2)6NH2)][Nspe][Nspe][Gly(N-(CH2)6NH2)][Nspe][Nspe]-NH2)	0
C[C@@H](c1ccccc1)N(CC(N)=O)C(=O)CN(C(=O)CN(CCCCCCN)C(=O)CN(C(=O)CN(C(=O)CNCCCCCCN)[C@@H](C)c1ccccc1)[C@@H](C)c1ccccc1)[C@@H](C)c1ccccc1	1

###

- method: Selectivity index, ratio of ED50 for human HaCaT cells to MIC for Escherichia coli K-12 W3110 ATCC 27325
- Format: toxicity
- studyConditions: read-out: Selectivity Index
Square brackets hold non-standard residues; d marks the D form. Peptide text beside a SMILES is read from it. Gly(N-(CH2)6NH2) = NCCCCCCNCC(=O)O; Nspe = C[C@H](NCC(=O)O)c1ccccc1; NhArg = N=C(N)NCCCCNCC(=O)O; Nphe = O=C(O)CNCc1ccccc1; Nlys = NCCCCNCC(=O)O
As shown below, each of these compounds has a reported selectivity ratio value.
quantityKind: selectivity ratio

compound	quantityKind	dataValue
C[C@@H](c1ccccc1)N(CC(N)=O)C(=O)CN(C(=O)CN(CCCCNC(=N)N)C(=O)CN(C(=O)CN(C(=O)CN(CCCCNC(=N)N)C(=O)CN(C(=O)CN(C(=O)CN(CCCCN)C(=O)CN(C(=O)CN(C(=O)CNCCCCN)[C@@H](C)c1ccccc1)[C@@H](C)c1ccccc1)[C@@H](C)c1ccccc1)[C@@H](C)c1ccccc1)[C@@H](C)c1ccccc1)[C@@H](C)c1ccccc1)[C@@H](C)c1ccccc1 (H-[Nlys][Nspe][Nspe][Nlys][Nspe][Nspe][NhArg][Nspe][Nspe][NhArg][Nspe][Nspe]-NH2)	selectivity ratio	6
NCCCCNCC(=O)N(CC(=O)N(CC(=O)N(CCCCN)CC(=O)N(CC(=O)N(CC(=O)N(CCCCN)CC(=O)N(CC(=O)N(CC(=O)N(CCCCN)CC(=O)N(CC(=O)N(CC(N)=O)Cc1cccc(F)c1)Cc1cccc(F)c1)Cc1cccc(F)c1)Cc1cccc(F)c1)Cc1cccc(F)c1)Cc1cccc(F)c1)Cc1cccc(F)c1)Cc1cccc(F)c1	selectivity ratio	1
NCCCCNCC(=O)N(CC(=O)N(CC(=O)N(CCCCN)CC(=O)N(CC(=O)N(CC(=O)N(CCCCN)CC(=O)N(CC(=O)N(CC(=O)N(CCCCN)CC(=O)N(CC(=O)N(CC(N)=O)Cc1ccccc1)Cc1ccccc1)Cc1ccccc1)Cc1ccccc1)Cc1ccccc1)Cc1ccccc1)Cc1ccccc1)Cc1ccccc1 (H-[Nlys][Nphe][Nphe][Nlys][Nphe][Nphe][Nlys][Nphe][Nphe][Nlys][Nphe][Nphe]-NH2)	selectivity ratio	3
C[C@@H](c1ccccc1)N(CC(N)=O)C(=O)CN(C(=O)CN(CCCCCCN)C(=O)CN(C(=O)CN(C(=O)CN(CCCCCCN)C(=O)CN(C(=O)CN(C(=O)CNCCCCCCN)[C@@H](C)c1ccccc1)[C@@H](C)c1ccccc1)[C@@H](C)c1ccccc1)[C@@H](C)c1ccccc1)[C@@H](C)c1ccccc1 (H-[Gly(N-(CH2)6NH2)][Nspe][Nspe][Gly(N-(CH2)6NH2)][Nspe][Nspe][Gly(N-(CH2)6NH2)][Nspe][Nspe]-NH2)	selectivity ratio	4
C[C@@H](c1ccccc1)N(CC(N)=O)C(=O)CN(C(=O)CN(CCCCCCN)C(=O)CN(C(=O)CN(C(=O)CNCCCCCCN)[C@@H](C)c1ccccc1)[C@@H](C)c1ccccc1)[C@@H](C)c1ccccc1	selectivity ratio	1
C[C@@H](c1ccccc1)N(CC(N)=O)C(=O)CN(C(=O)CN(CCCCN)C(=O)CN(C(=O)CN(C(=O)CN(CCCCNC(=N)N)C(=O)CN(C(=O)CN(C(=O)CN(CCCCN)C(=O)CN(C(=O)CN(C(=O)CNCCCCNC(=N)N)[C@@H](C)c1ccccc1)[C@@H](C)c1ccccc1)[C@@H](C)c1ccccc1)[C@@H](C)c1ccccc1)[C@@H](C)c1ccccc1)[C@@H](C)c1ccccc1)[C@@H](C)c1ccccc1 (H-[NhArg][Nspe][Nspe][Nlys][Nspe][Nspe][NhArg][Nspe][Nspe][Nlys][Nspe][Nspe]-NH2)	selectivity ratio	2

###

Below: a set of entries, each annotated with reported selectivity ratio.
- method: Selectivity index, ratio of ED50 for human HaCaT cells to MIC for Escherichia coli K-12 W3110 ATCC 27325
- Type: toxicity
- studyConditions: read-out: Selectivity Index
Square brackets hold non-standard residues; d marks the D form. Peptide text beside a SMILES is read from it. Gly(N-2-aminoethyl) = NCCNCC(=O)O; Nspe = C[C@H](NCC(=O)O)c1ccccc1; NhArg = N=C(N)NCCCCNCC(=O)O; Nphe = O=C(O)CNCc1ccccc1; Nlys = NCCCCNCC(=O)O

compound	selectivity ratio
C[C@@H](c1ccccc1)N(CC(N)=O)C(=O)CN(C(=O)CN(CCCCNC(=N)N)C(=O)CN(C(=O)CN(C(=O)CN(CCCCNC(=N)N)C(=O)CN(C(=O)CN(C(=O)CN(CCCCNC(=N)N)C(=O)CN(C(=O)CN(C(=O)CNCCCCNC(=N)N)[C@@H](C)c1ccccc1)[C@@H](C)c1ccccc1)[C@@H](C)c1ccccc1)[C@@H](C)c1ccccc1)[C@@H](C)c1ccccc1)[C@@H](C)c1ccccc1)[C@@H](C)c1ccccc1 (H-[NhArg][Nspe][Nspe][NhArg][Nspe][Nspe][NhArg][Nspe][Nspe][NhArg][Nspe][Nspe]-NH2)	3
NCCCCNCC(=O)N(CC(=O)N(CC(=O)N(CCCCN)CC(=O)N(CC(=O)N(CC(N)=O)Cc1ccccc1)Cc1ccccc1)Cc1ccccc1)Cc1ccccc1 (H-[Nlys][Nphe][Nphe][Nlys][Nphe][Nphe]-NH2)	1
NCCNCC(=O)N(CC(=O)N(CC(=O)N(CCN)CC(=O)N(CC(=O)N(CC(=O)N(CCN)CC(=O)N(CC(=O)N(CC(=O)N(CCN)CC(=O)N(CC(=O)N(CC(N)=O)Cc1ccccc1)Cc1ccccc1)Cc1ccccc1)Cc1ccccc1)Cc1ccccc1)Cc1ccccc1)Cc1ccccc1)Cc1ccccc1 (H-[Gly(N-2-aminoethyl)][Nphe][Nphe][Gly(N-2-aminoethyl)][Nphe][Nphe][Gly(N-2-aminoethyl)][Nphe][Nphe][Gly(N-2-aminoethyl)][Nphe][Nphe]-NH2)	8
